All figures here come from paper PMC12040169.

test: in vitro; conditions: human, hela cells, % viability
Parameter: viability at 28.5 h, 10 µM. Scope: all listed entries.
All answers are understood in %, so give the number only.

Field: example entries. Status: answers known.
compound	viability at 28.5 h, 10 µM / %
COc1ccc(N2C(=O)CC(n3c(CCCCO)nc4ccccc43)C2=O)cc1 (stereo not shown)	107
O=C(CN1C(=O)[C@H]2CCCN2C(=O)c2ccccc21)NC1CCCC1	112
CCOc1ccc(CCN2C(=O)CN=C2S)cc1OCC	103
c1ccc(CCc2nn3c(Cn4cnc5ccccc54)nnc3s2)cc1	84.2
O=C(O)c1cccc(NS(=O)(=O)c2ccc(CNC(=O)c3ccc(Cl)cc3)s2)c1	104
COC(=O)C1(Cc2cc(-c3ccccc3F)no2)CCOCC1	87.8
O=C(C[C@@H]1O[C@H](CNCc2cccc(Cl)c2)[C@@H](O)[C@H]1O)N1CCOCC1	77.3
C(=C\C1Nc2ccccc2-c2nnc(SCc3ccccc3)nc2O1)/c1ccccc1 (stereo not shown)	112
O=C(O)c1ccc(CNCC(O)c2ccccc2)cc1 (stereo not shown)	109
Cc1ccc2c(c1)C1(CCN(C/C=C\c3ccccc3)CC1)NC(=O)C2	94.1

Tell me the measured viability at 28.5 h, 10 µM of CCN(CC)CCn1c2ccccc2c2nc3cc(C(=O)O)ccc3nc21 , please.
101

Tell me the measured viability at 28.5 h, 10 µM of Nc1ccc(OCc2nc3ccccc3n2CC(=O)O)cc1 , please.
96
